biological target: GLUT3S66Y (Homo sapiens, UniProt P11169, S66Y); experiment: Glucose transport assay, GLUT3S66Y expressed in hxt^0 yeast cells EBY.S7; conditions: Ki for GLUT3 inhibition (Dixon plot), Dixon plots with GLUT3S66Y at 0.75, 1.50 and 3.00 mM glucose; competitive with glucose
Sequence (P11169 whole entry S66Y): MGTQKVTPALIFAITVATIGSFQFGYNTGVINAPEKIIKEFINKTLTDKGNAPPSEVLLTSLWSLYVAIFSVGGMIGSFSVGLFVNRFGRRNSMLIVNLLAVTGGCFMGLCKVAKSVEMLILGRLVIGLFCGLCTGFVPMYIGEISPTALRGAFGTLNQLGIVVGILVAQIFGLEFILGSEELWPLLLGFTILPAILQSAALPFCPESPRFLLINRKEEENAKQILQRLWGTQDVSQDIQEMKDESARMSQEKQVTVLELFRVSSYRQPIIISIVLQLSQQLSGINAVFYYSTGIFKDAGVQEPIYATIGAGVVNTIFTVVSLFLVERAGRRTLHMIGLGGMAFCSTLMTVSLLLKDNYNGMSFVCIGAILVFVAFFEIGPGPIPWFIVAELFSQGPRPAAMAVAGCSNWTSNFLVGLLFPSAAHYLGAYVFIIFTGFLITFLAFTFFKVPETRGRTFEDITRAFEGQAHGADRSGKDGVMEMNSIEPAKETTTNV
# reported Ki; entries follow

{"compound": "Cc1cccnc1OC1CCN(c2cc(N3CCCC3CO)ncn2)CC1 (centres unmarked) [G3iC]", "valueUnits": "µM", "Ki": 5.83}
{"compound": "O=C(Nc1cccc(Cl)c1)c1cccc(NC(=O)c2cccc([N+](=O)[O-])c2)c1 [G3iE]", "valueUnits": "µM", "Ki": 12.3}

###

tested on: U937 leukemia cells; assay: MTT cancer cell viability assay, U937; assay type: cell-based; settings: U937, 48 h
experimentalReadout: CC50

{"molecule": "O=C(Nc1cccc(Cl)c1)c1cccc(NC(=O)c2cccc([N+](=O)[O-])c2)c1 [G3iE]", "experimentalReadout": "CC50", "result": "~18 µM"}

###

system: Caco-2 (colon cancer) cells; assay: MTT cancer cell viability assay, Caco-2; type: cell-based; details: Homo sapiens, Caco-2; Caco2, 48 h, MTT; read-out: CC50
# reported CC50; entries follow

{"molecule": "Cc1cc(NC(=O)CCC2Cc3ccccc3NC2=O)nc(-c2ccccc2)n1 (centres unmarked)", "CC50": "> 100 µM"}
{"molecule": "Cc1cccnc1OC1CCN(c2cc(N3CCCC3CO)ncn2)CC1 (centres unmarked)", "CC50": "> 100 µM"}
{"molecule": "CC(=O)Nc1ccc(S(=O)(=O)Nc2ccc(Nc3cc(N(C)C)nc(C)n3)cc2)cc1", "CC50": "> 100 µM"}
{"molecule": "Cc1ccccc1CN(Cc1nnc(C(C)(C)C)o1)c1ccc2nc(O)[nH]c2c1", "CC50": "> 100 µM"}
{"molecule": "O=C(Nc1cccc(Cl)c1)c1cccc(NC(=O)c2cccc([N+](=O)[O-])c2)c1", "CC50": "> 50 µM"}

###

Tested on: HL60 leukemia cells
Assay: MTT cancer cell viability assay, HL60
Format: cell-based
Conditions: HL60, 48 h
Description: A possible therapeutic application of GLUT3 inhibitors is in oncology, especially for cancers in which GLUT3 is a poor prognosis marker. […] Then, cell viability was assessed with the MTT assay. […] Supplementary Figure S8. […] Cell viability was determined by MTT assay in A549 (lung cancer), BeWo (choriocarcinoma), Caco-2 (colon cancer), HepG2 (liver cancer), HL-60 (leukemia), MCF7 (breast cancer), and U937 (histiocytic lymphoma) cell lines. […]
experimentalReadout: CC50 (µM)

{"chemSmiles": "O=C(Nc1cccc(Cl)c1)c1cccc(NC(=O)c2cccc([N+](=O)[O-])c2)c1", "recordedNumber": 15.7}

###

# reported IC50; entries follow
molecular target: GLUT3S66Y (Homo sapiens, UniProt P11169, S66Y); construct: expressed in transfected cells; host or cells: Saccharomyces cerevisiae hxt0 strain EBY.S7 (fgy1); assay: Glucose transport assay, GLUT3S66Y expressed in hxt^0 yeast cells EBY.S7; type: cell-based

{"molecule": "O=C(Nc1cccc(Cl)c1)c1cccc(NC(=O)c2cccc([N+](=O)[O-])c2)c1 [G3iE]", "IC50 (µM)": 20.6}
{"molecule": "CC(=O)Nc1ccc(S(=O)(=O)Nc2ccc(Nc3cc(N(C)C)nc(C)n3)cc2)cc1 [G3iA]", "IC50 (µM)": 6.21}
{"molecule": "Cc1cc(NC(=O)CCC2Cc3ccccc3NC2=O)nc(-c2ccccc2)n1 (centres unmarked) [G3iD]", "IC50 (µM)": 12.6}
{"molecule": "Cc1cccnc1OC1CCN(c2cc(N3CCCC3CO)ncn2)CC1 (centres unmarked) [G3iC]", "IC50 (µM)": 10.1}
{"molecule": "Cc1ccccc1CN(Cc1nnc(C(C)(C)C)o1)c1ccc2nc(O)[nH]c2c1 [G3iF]", "IC50 (µM)": 24.8}

###

test system: U937 leukemia cells; assay: MTT cancer cell viability assay, U937; format: cell-based; conditions: Homo sapiens, U-937, 48 h, U937, 48 h
# reported CC50; entries follow
experimentalReadout: CC50

{"compound": "Cc1cccnc1OC1CCN(c2cc(N3CCCC3CO)ncn2)CC1 (centres unmarked) [G3iC]", "experimentalReadout": "CC50", "result": "> 50 µM"}
{"compound": "O=C(Nc1cccc(Cl)c1)c1cccc(NC(=O)c2cccc([N+](=O)[O-])c2)c1 [G3iE]", "experimentalReadout": "CC50", "result": "< 20 µM"}
{"compound": "Cc1cc(NC(=O)CCC2Cc3ccccc3NC2=O)nc(-c2ccccc2)n1 (centres unmarked) [G3iD]", "experimentalReadout": "CC50", "result": "> 50 µM"}
{"compound": "CC(=O)Nc1ccc(S(=O)(=O)Nc2ccc(Nc3cc(N(C)C)nc(C)n3)cc2)cc1 [G3iA]", "experimentalReadout": "CC50", "result": "> 100 µM"}
{"compound": "Cc1ccccc1CN(Cc1nnc(C(C)(C)C)o1)c1ccc2nc(O)[nH]c2c1 [G3iF]", "experimentalReadout": "CC50", "result": "> 50 µM"}

###

Molecular target: GLUT5S72Y (Homo sapiens, UniProt P22732, S72Y)
Sequence (P22732 whole entry S72Y): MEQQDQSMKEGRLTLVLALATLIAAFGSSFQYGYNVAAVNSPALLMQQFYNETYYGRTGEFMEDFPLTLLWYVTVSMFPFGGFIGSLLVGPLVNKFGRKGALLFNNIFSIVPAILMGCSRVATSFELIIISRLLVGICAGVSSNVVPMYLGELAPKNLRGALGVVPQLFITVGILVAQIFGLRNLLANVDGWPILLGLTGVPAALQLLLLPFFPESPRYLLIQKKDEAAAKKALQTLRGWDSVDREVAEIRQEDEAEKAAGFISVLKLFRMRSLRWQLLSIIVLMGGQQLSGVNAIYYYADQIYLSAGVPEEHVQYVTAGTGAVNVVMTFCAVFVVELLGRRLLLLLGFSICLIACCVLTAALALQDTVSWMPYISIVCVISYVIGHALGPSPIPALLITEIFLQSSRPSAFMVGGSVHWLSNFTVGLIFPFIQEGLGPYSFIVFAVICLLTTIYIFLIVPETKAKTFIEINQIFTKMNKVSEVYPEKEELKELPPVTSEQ
Assay: Fructose transport assay, GLUT5S72Y expressed in hxt^0 yeast cells EBY.VW4000
Details: GLUT5S72Y in hxt^0 yeast cells, 10 mM fructose; read-out: IC50 for GLUT5 transport inhibition
Method: The most studied GLUTs are Class 1 GLUTs (GLUT1-4) and a Class 2 GLUT, GLUT5 (a fructose-only transporter). […] For transport activity assay, cells in the hexose media were centrifuged (1000×g, 5 min, room temperature), washed once with PBS buffer (10 mM Na2HPO4, 1.8 mM KH2PO4, 2.7 mM KCl, 137 mM NaCl, pH 7.4), and resuspended in PBS buffer at an OD600nm ~ 10; each assay contained 100 µl of this cell solution. […] Data were analyzed with GraphPad Prism (San Diego, CA, USA).
pIC50: −log10 of the molar value.

{"molecule": "Cc1cc(NC(=O)CCC2Cc3ccccc3NC2=O)nc(-c2ccccc2)n1 (stereo not drawn) [G3iD]", "targetDesc": "GLUT5S72Y (Homo sapiens, UniProt P22732, S72Y)", "pIC50": "< 4.30"}
{"molecule": "CC(=O)Nc1ccc(S(=O)(=O)Nc2ccc(Nc3cc(N(C)C)nc(C)n3)cc2)cc1 [G3iA]", "targetDesc": "GLUT5S72Y (Homo sapiens, UniProt P22732, S72Y)", "pIC50": "< 4.30"}
{"molecule": "O=C(Nc1cccc(Cl)c1)c1cccc(NC(=O)c2cccc([N+](=O)[O-])c2)c1 [G3iE]", "targetDesc": "GLUT5S72Y (Homo sapiens, UniProt P22732, S72Y)", "pIC50": "< 4.30"}
{"molecule": "COc1ccccc1-n1c(/C=C/c2ccc(O)cc2)nc2ccc(Br)cc2c1=O [G3iB]", "targetDesc": "GLUT5S72Y (Homo sapiens, UniProt P22732, S72Y)", "pIC50": "< 4.30"}
{"molecule": "Cc1cccnc1OC1CCN(c2cc(N3CCCC3CO)ncn2)CC1 (stereo not drawn) [G3iC]", "targetDesc": "GLUT5S72Y (Homo sapiens, UniProt P22732, S72Y)", "pIC50": "< 4.30"}
{"molecule": "Cc1ccccc1CN(Cc1nnc(C(C)(C)C)o1)c1ccc2nc(O)[nH]c2c1 [G3iF]", "targetDesc": "GLUT5S72Y (Homo sapiens, UniProt P22732, S72Y)", "pIC50": "< 4.30"}

###

system: HL60 leukemia cells; assay: MTT cancer cell viability assay, HL60; type: cell-based; conditions: Homo sapiens, HL-60, 48 h, HL60, 48 h
experimentalReadout: CC50

{"compound": "Cc1cc(NC(=O)CCC2Cc3ccccc3NC2=O)nc(-c2ccccc2)n1 (centres unmarked)", "result": "28.7 µM"}
{"compound": "Cc1cccnc1OC1CCN(c2cc(N3CCCC3CO)ncn2)CC1 (centres unmarked)", "result": "31.1 µM"}
{"compound": "CC(=O)Nc1ccc(S(=O)(=O)Nc2ccc(Nc3cc(N(C)C)nc(C)n3)cc2)cc1", "result": "> 100 µM"}
{"compound": "O=C(Nc1cccc(Cl)c1)c1cccc(NC(=O)c2cccc([N+](=O)[O-])c2)c1", "result": "< 20 µM"}
{"compound": "Cc1ccccc1CN(Cc1nnc(C(C)(C)C)o1)c1ccc2nc(O)[nH]c2c1", "result": "> 50 µM"}

###

test system: A549 (lung cancer) cells; assay: MTT cancer cell viability assay, A549; format: cell-based; conditions: Homo sapiens, A549, 48 h
# reported CC50; entries follow
experimentalReadout: CC50

{"compound": "CC(=O)Nc1ccc(S(=O)(=O)Nc2ccc(Nc3cc(N(C)C)nc(C)n3)cc2)cc1", "targetDesc": "A549 (lung cancer) cells", "result": "> 100 µM"}
{"compound": "Cc1cccnc1OC1CCN(c2cc(N3CCCC3CO)ncn2)CC1 (centres unmarked)", "targetDesc": "A549 (lung cancer) cells", "result": "~22 µM"}
{"compound": "Cc1cc(NC(=O)CCC2Cc3ccccc3NC2=O)nc(-c2ccccc2)n1 (centres unmarked)", "targetDesc": "A549 (lung cancer) cells", "result": "32.5 µM"}
{"compound": "O=C(Nc1cccc(Cl)c1)c1cccc(NC(=O)c2cccc([N+](=O)[O-])c2)c1", "targetDesc": "A549 (lung cancer) cells", "result": "~33 µM"}
{"compound": "Cc1ccccc1CN(Cc1nnc(C(C)(C)C)o1)c1ccc2nc(O)[nH]c2c1", "targetDesc": "A549 (lung cancer) cells", "result": "> 100 µM"}
